System: Staphylococcus aureus 88 E
METHOD: In vitro anti-bacterial activity test (MIC, two-fold dilution method), Table 2 strains
Assay type: cell-based
RUN_CONDITIONS: Table 2 strain 1: Staphylococcus aureus 88 E
QUANTITY: MIC (µg/mL)
Field: numeric (µg/mL). Do not append units.

| COMPOUND | READING_UNIT | MIC |
| --- | --- | --- |
| CNC1CC12CCN(c1c(F)cc3c(=O)c(C(=O)O)cn(C4CC4)c3c1F)C2 (centres unmarked) [Example 8] | µg/mL | 0.098 |
| CC1COc2c(N3CCN(C)CC3)c(F)cc3c(=O)c(C(=O)O)cn1c23 (centres unmarked) [Ofloxacin, ofloxacin, reference compound] | µg/mL | 0.781 |

Ask | Reported MIC for O=C(O)c1cn(C2CC2)c2cc(N3CCNCC3)c(F)cc2c1=O [Ciprofloxacin, ciprofloxacin, reference compound] : what is it?
Reply | 1.56

Ask | Reported MIC for CNC1CC12CCN(c1c(F)cc3c(=O)c(C(=O)O)cn(C4CC4)c3c1Cl)C2 (centres unmarked) [Example 9] : what is it?
Reply | 0.195

Ask | Reported MIC for Nc1c(F)c(N2CCC3(CC3N)C2)c(F)c2c1c(=O)c(C(=O)O)cn2C1CC1 (centres unmarked) [Example 7] : what is it?
Reply | 0.098

====

Test system: Klebsiella aerogenes 1082 E
METHOD: In vitro anti-bacterial activity test (MIC, two-fold dilution method) against the standard strains
Format: cell-based
RUN_CONDITIONS: Table 1 strain 17: Klebsiella aerogenes 1082 E
Below, each of the compounds is paired with its reported MIC value.

Previously resolved entries follow.
| COMPOUND | QUANTITY | VALUE_OBSERVED |
| --- | --- | --- |
| CC1COc2c(N3CCN(C)CC3)c(F)cc3c(=O)c(C(=O)O)cn1c23 (centres unmarked) [Ofloxacin, ofloxacin, reference compound] | MIC | < 2 ng/mL |
| NC1CC12CCN(c1c(F)cc3c(=O)c(C(=O)O)cn(C4CC4)c3c1Cl)C2 (centres unmarked) [Example 3] | MIC | < 2 ng/mL |
| CNC1CC12CCN(c1c(F)c(N)c3c(=O)c(C(=O)O)cn(C4CC4)c3c1F)C2 (centres unmarked) [Example 12] | MIC | < 2 ng/mL |

Ask | Reported MIC for CC(O)C(=O)O.NC1CC12CCN(c1c(F)cc3c(=O)c(C(=O)O)cn(C4CC4)c3c1F)C2 (centres unmarked) [Example 2] : what is it?
Reply | 13 ng/mL

Ask | Reported MIC for NC1CC12CCN(c1cc3c(cc1F)c(=O)c(C(=O)O)cn3C1CC1)C2 (centres unmarked) [Example 5] : what is it?
Reply | 4 ng/mL

Ask | Reported MIC for CNC1CC12CCN(c1c(F)cc3c(=O)c(C(=O)O)cn4c3c1OC[C@@H]4C)C2 (some centres unmarked) [Example 10] : what is it?
Reply | 7 ng/mL

Ask | Reported MIC for CNC1CC12CCN(c1cc3c(cc1F)c(=O)c(C(=O)O)cn3C1CC1)C2 (centres unmarked) [Example 11] : what is it?
Reply | 4 ng/mL

Ask | Reported MIC for NC1CC12CCN(c1nc3c(cc1F)c(=O)c(C(=O)O)cn3C1CC1)C2 (centres unmarked) [Example 6] : what is it?
Reply | 391 ng/mL

====

Below, each of the compounds is paired with its reported MIC value.
Tested on: Staphylococcus aureus 705 E
METHOD: In vitro anti-bacterial activity test (MIC, two-fold dilution method), Table 2 strains
Assay type: cell-based
RUN_CONDITIONS: Table 2 strain 13: Staphylococcus aureus 705 E; read-out: MIC
Field: numeric (µg/mL). Do not append units.

Ask | What is its MIC for Staphylococcus aureus 705 E? Entry: CNC1CC12CCN(c1c(F)cc3c(=O)c(C(=O)O)cn(C4CC4)c3c1Cl)C2 (stereo not shown) [Example 9]
Reply | 0.098

Ask | What is its MIC for Staphylococcus aureus 705 E? Entry: CNC1CC12CCN(c1c(F)cc3c(=O)c(C(=O)O)cn(C4CC4)c3c1F)C2 (stereo not shown) [Example 8]
Reply | 0.195

Ask | What is its MIC for Staphylococcus aureus 705 E? Entry: Nc1c(F)c(N2CCC3(CC3N)C2)c(F)c2c1c(=O)c(C(=O)O)cn2C1CC1 (stereo not shown) [Example 7]
Reply | 0.025

Ask | What is its MIC for Staphylococcus aureus 705 E? Entry: CC1COc2c(N3CCN(C)CC3)c(F)cc3c(=O)c(C(=O)O)cn1c23 (stereo not shown) [Ofloxacin, ofloxacin, reference compound]
Reply | 0.781

====

Below, each of the compounds is paired with its reported MIC value.
System: Escherichia coli OTEM
METHOD: In vitro anti-bacterial activity test (MIC, two-fold dilution method) against the standard strains
Type: cell-based
RUN_CONDITIONS: Table 1 strain 10: Escherichia coli OTEM
Field: numeric (µg/mL). Do not append units.

Ask | Reported MIC for NC1CC12CCCN(c1c(F)cc3c(=O)c(C(=O)O)cn(C4CC4)c3c1F)C2 (stereo not shown) : what is it?
Reply | 0.098

Ask | Reported MIC for CNC1CC12CCN(c1c(F)cc3c(=O)c(C(=O)O)cn(C4CC4)c3c1F)C2 (stereo not shown) : what is it?
Reply | 0.049

Ask | Reported MIC for NC1CC12CCN(c1cc3c(cc1F)c(=O)c(C(=O)O)cn3C1CC1)C2 (stereo not shown) : what is it?
Reply | 0.049

Ask | Reported MIC for C[C@H]1COc2c(N3CCC4(CC4N)C3)c(F)cc3c(=O)c(C(=O)O)cn1c23 (stereo partly shown) : what is it?
Reply | 0.049

Ask | Reported MIC for CNC1CC12CCN(c1cc3c(cc1F)c(=O)c(C(=O)O)cn3C1CC1)C2 (stereo not shown) : what is it?
Reply | 0.098

Ask | Reported MIC for CNC1CC12CCN(c1c(F)cc3c(=O)c(C(=O)O)cn4c3c1OC[C@@H]4C)C2 (stereo partly shown) : what is it?
Reply | 0.049

====

Test system: Staphylococcus aureus 697 E
METHOD: In vitro anti-bacterial activity test (MIC, two-fold dilution method), Table 2 strains
Type: cell-based
RUN_CONDITIONS: Table 2 strain 10: Staphylococcus aureus 697 E
QUANTITY: MIC (µg/mL)
Field: numeric (µg/mL). Do not append units.

| MOLECULE | VALUE_OBSERVED |
| --- | --- |
| CC1COc2c(N3CCN(C)CC3)c(F)cc3c(=O)c(C(=O)O)cn1c23 (stereo not shown) [Ofloxacin, ofloxacin, reference compound] | 0.391 |
| CNC1CC12CCN(c1c(F)cc3c(=O)c(C(=O)O)cn(C4CC4)c3c1Cl)C2 (stereo not shown) | 0.049 |
| CNC1CC12CCN(c1c(F)cc3c(=O)c(C(=O)O)cn(C4CC4)c3c1F)C2 (stereo not shown) | 0.049 |

Ask | Reported MIC for Nc1c(F)c(N2CCC3(CC3N)C2)c(F)c2c1c(=O)c(C(=O)O)cn2C1CC1 (stereo not shown) : what is it?
Reply | 0.013

====

Below, each of the molecules is paired with its reported MIC value.
Test system: Klebsiella aerogenes 1522 E
METHOD: In vitro anti-bacterial activity test (MIC, two-fold dilution method) against the standard strains
Type: cell-based
RUN_CONDITIONS: Table 1 strain 18: Klebsiella aerogenes 1522 E
Field: numeric (µg/mL). Do not append units.

Previously resolved entries follow.
| MOLECULE | READING_UNIT | MIC |
| --- | --- | --- |
| NC1CC12CCN(c1cc3c(cc1F)c(=O)c(C(=O)O)cn3C1CC1)C2 (centres unmarked) [Example 5] | µg/mL | 0.049 |
| CNC1CC12CCN(c1cc3c(cc1F)c(=O)c(C(=O)O)cn3C1CC1)C2 (centres unmarked) [Example 11] | µg/mL | 0.098 |
| CNC1CC12CCN(c1c(F)c(N)c3c(=O)c(C(=O)O)cn(C4CC4)c3c1F)C2 (centres unmarked) [Example 12] | µg/mL | 0.098 |

Ask | What is its MIC for Klebsiella aerogenes 1522 E? Entry: C[C@H]1COc2c(N3CCC4(CC4C(=O)O)C3)c(F)cc3c(=O)c(C(=O)O)cn1c23 (some centres unmarked) [Example 14]
Reply | 1.56

Ask | What is its MIC for Klebsiella aerogenes 1522 E? Entry: CNC1CC12CCN(c1c(F)cc3c(=O)c(C(=O)O)cn(C4CC4)c3c1F)C2 (centres unmarked) [Example 8]
Reply | 0.098

Ask | What is its MIC for Klebsiella aerogenes 1522 E? Entry: NC1CC12CCN(c1c(F)cc3c(=O)c(C(=O)O)cn(C4CC4)c3c1F)C2 (centres unmarked) [Example 1]
Reply | 0.013

Ask | What is its MIC for Klebsiella aerogenes 1522 E? Entry: NC1CC12CCCN(c1c(F)cc3c(=O)c(C(=O)O)cn(C4CC4)c3c1F)C2 (centres unmarked) [Example 16]
Reply | 0.098

Ask | What is its MIC for Klebsiella aerogenes 1522 E? Entry: NCC1CC12CCN(c1c(F)cc3c(=O)c(C(=O)O)cn(C4CC4)c3c1F)C2 (centres unmarked) [Example 15]
Reply | 0.195

Ask | What is its MIC for Klebsiella aerogenes 1522 E? Entry: C[C@H]1COc2c(N3CCC4(CC4N)C3)c(F)cc3c(=O)c(C(=O)O)cn1c23 (some centres unmarked) [Example 13]
Reply | 0.098

Ask | What is its MIC for Klebsiella aerogenes 1522 E? Entry: NC1CC12CCN(c1c(F)cc3c(=O)c(C(=O)O)cn(C4CC4)c3c1Cl)C2 (centres unmarked) [Example 3]
Reply | 0.004

Ask | What is its MIC for Klebsiella aerogenes 1522 E? Entry: NC1CC12CCN(c1nc3c(cc1F)c(=O)c(C(=O)O)cn3C1CC1)C2 (centres unmarked) [Example 6]
Reply | 0.025
